# target desc: DP receptor (Homo sapiens, UniProt Q13258)
# Construct: the human cell line LS174T, which expresses the endogenous DP receptor; endogenous in cells; host or cells: LS174T human cell line
# Sequence (Q13258 whole entry): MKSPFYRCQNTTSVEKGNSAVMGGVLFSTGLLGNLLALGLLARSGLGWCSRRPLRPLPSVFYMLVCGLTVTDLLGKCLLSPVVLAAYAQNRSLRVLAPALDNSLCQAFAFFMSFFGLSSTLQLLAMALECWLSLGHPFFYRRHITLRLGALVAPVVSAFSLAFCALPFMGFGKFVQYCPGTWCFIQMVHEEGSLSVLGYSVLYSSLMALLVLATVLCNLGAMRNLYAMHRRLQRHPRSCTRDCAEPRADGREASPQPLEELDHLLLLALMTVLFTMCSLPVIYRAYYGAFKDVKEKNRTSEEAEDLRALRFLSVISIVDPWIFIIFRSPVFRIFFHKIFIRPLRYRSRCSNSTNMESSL
# assay overview: SPA cAMP assay in human LS174 T cells (human DP functional assay)
# Type: cell-based
# particulars: inhibition of PGD2 (15 nM final) stimulated cAMP, LS174T cells expressing endogenous DP receptor
pIC50: −log10 of the molar value. Where a name gives a salt, the structure may show the parent alone.
readout type: pIC50

1. COc1cccc(-c2cc(NCCc3cccs3)nc(OC)n2)c1 [Example 43(e), hydrochloride] | 8.01
2. COc1ccc(CCNc2cc(-c3ccc(CN4CCCC4)s3)nc(OC)n2)cc1 | 7.36
3. COc1ccc(CCNc2cc(-c3ccc4ncccc4c3)nc(OC)n2)cc1 | 9.22

[A] COc1ccc(CCNc2cc(-c3ccc[n+]([O-])c3)nc(OC)n2)cc1
[B] COc1nc(NCCc2ccc(Cl)cc2Cl)cc(-c2ccc3nc(NC(C)=O)sc3c2)n1
[C] COc1nc(NCCc2ccc(OC)c(OC)c2)cc(-c2cccc(C(=O)NCCN3CCCC3)c2)n1
[D] COc1nc(NCCc2ccc(OC)c(OC)c2)cc(-c2ccc(-c3ccccc3)cc2)n1 [Example 35(e)]
[E] COc1nc(NCCc2ccc(Cl)cc2Cl)cc(N2CCCC(C(=O)O)C2)n1 (stereo not drawn)
List items by pIC50 in falling order. // format: requested-order list of labels E, B, C, A, D
(E: 9.10, B: 7.96, C: 7.52, A: 6.83, D: 6.43)
